- assayedSystem: ClpP1P2 (Mycobacterium tuberculosis (strain ATCC 25618 / H37Rv), UniProt P9WPC3+P9WPC5, R119S)
- assayOverview: Inhibition of Mtb ClpP1 R119S mutant expressed in Escherichia coli BL21(DE3)
pIC50: −log10 of the molar value.
measureName: pIC50

molecularString | reported
COc1cc2c(Oc3ccc4[nH]c(C)cc4c3F)ncnc2cc1OCCCN1CCCC1 | 4.37

---

- assayedSystem: ClpP1P2 (Mycobacterium tuberculosis (strain ATCC 25618 / H37Rv), UniProt P9WPC3+P9WPC5, I146L)
- assayOverview: Inhibition of Mtb ClpP1 I146L mutant expressed in Escherichia coli BL21(DE3)
pIC50: −log10 of the molar value.

molecularString | pIC50
COc1cc2c(Oc3ccc4[nH]c(C)cc4c3F)ncnc2cc1OCCCN1CCCC1 | 5.01

---

- assayedSystem: ClpP1P2 (Mycobacterium tuberculosis (strain ATCC 25618 / H37Rv), UniProt P9WPC3+P9WPC5, E149Q)
- assayOverview: Inhibition of Mtb ClpP1 E149Q mutant expressed in Escherichia coli BL21(DE3)
pIC50: −log10 of the molar value.

molecularString | pIC50
COc1cc2c(Oc3ccc4[nH]c(C)cc4c3F)ncnc2cc1OCCCN1CCCC1 | 5.20

---

- assayedSystem: ClpP1P2 (Mycobacterium tuberculosis (strain ATCC 25618 / H37Rv), UniProt P9WPC3+P9WPC5, W174A)
- assayOverview: Inhibition of Mtb ClpP1 W174A mutant expressed in Escherichia coli BL21(DE3)

molecularString | IC50, µM
COc1cc2c(Oc3ccc4[nH]c(C)cc4c3F)ncnc2cc1OCCCN1CCCC1 | 20.2

---

- assayedSystem: ClpP1P2 (Mycobacterium tuberculosis (strain ATCC 25618 / H37Rv), UniProt P9WPC3+P9WPC5, Q142R)
- assayOverview: Inhibition of Mtb ClpP1 Q142R mutant expressed in Escherichia coli BL21(DE3)
pIC50: −log10 of the molar value.
measureName: pIC50

molecularString | reported
COc1cc2c(Oc3ccc4[nH]c(C)cc4c3F)ncnc2cc1OCCCN1CCCC1 | 5.02

---

- assayedSystem: ClpP1P2 (Mycobacterium tuberculosis (strain ATCC 25618 / H37Rv), UniProt P9WPC3+P9WPC5, Q142H)
- assayOverview: Inhibition of Mtb ClpP1 Q142H mutant expressed in Escherichia coli BL21(DE3)
pIC50: −log10 of the molar value.

molecularString | pIC50
COc1cc2c(Oc3ccc4[nH]c(C)cc4c3F)ncnc2cc1OCCCN1CCCC1 | 4.84

---

- assayedSystem: ClpP1P2 (Mycobacterium tuberculosis (strain ATCC 25618 / H37Rv), UniProt P9WPC3+P9WPC5, E149T)
- assayOverview: Inhibition of Mtb ClpP1 E149T mutant expressed in Escherichia coli BL21(DE3)
pIC50: −log10 of the molar value.
measureName: pIC50

compound | reported
COc1cc2c(Oc3ccc4[nH]c(C)cc4c3F)ncnc2cc1OCCCN1CCCC1 [CEDIRANIB] | 5.12

---

- assayedSystem: ClpP1P2 (Mycobacterium tuberculosis (strain ATCC 25618 / H37Rv), UniProt P9WPC3+P9WPC5, S72T)
- assayOverview: Inhibition of Mtb ClpP1 S72T mutant expressed in Escherichia coli BL21(DE3)
pIC50: −log10 of the molar value.
measureName: pIC50

molecularString | reported
COc1cc2c(Oc3ccc4[nH]c(C)cc4c3F)ncnc2cc1OCCCN1CCCC1 | < 4.26
